Attribution: ChEMBL document CHEMBL3297649

Listing of entries alongside the reported EC50.
# assayed target: D(2) dopamine receptor (Homo sapiens)
# assay protocol: Agonist activity at human D2L receptor expressed in FlpIn CHO cells assessed as induction of ERK1/2 phosphorylation by AlphaScreen assay
# Format: cell-based
quantity measured: EC50 (nM)

In [3]: df
Out[3]:
                               smiles_input  quantity_measured  units_text  result
0  COc1nc2sc(C(=O)NCCCCCN3CCN(c4cccc(Cl)c4Cl)CC3)c(N)c2c(C)c1Cl               EC50          nM    87.6
1  Cc1cc(C)c2c(N)c(C(=O)NCCCCCN3CCN(c4cccc(Cl)c4Cl)CC3)sc2n1               EC50          nM    13.2

====

# assayed target: D(2) dopamine receptor (Homo sapiens, UniProt P14416)
# Sequence (P14416 whole entry): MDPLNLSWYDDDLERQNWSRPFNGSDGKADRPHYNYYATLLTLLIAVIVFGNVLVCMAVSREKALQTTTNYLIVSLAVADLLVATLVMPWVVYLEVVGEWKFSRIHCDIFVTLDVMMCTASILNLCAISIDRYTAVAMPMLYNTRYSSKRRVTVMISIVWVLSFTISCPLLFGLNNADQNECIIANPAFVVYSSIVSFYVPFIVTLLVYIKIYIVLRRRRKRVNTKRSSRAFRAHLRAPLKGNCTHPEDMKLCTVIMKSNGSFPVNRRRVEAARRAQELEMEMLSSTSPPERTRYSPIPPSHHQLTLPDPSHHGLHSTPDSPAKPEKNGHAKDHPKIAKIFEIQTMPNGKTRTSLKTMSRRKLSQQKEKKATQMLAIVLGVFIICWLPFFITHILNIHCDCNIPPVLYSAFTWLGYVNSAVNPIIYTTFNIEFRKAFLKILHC
# condition notes: CHO
Listing of entries alongside the reported pKA.
quantity measured: pKA

                               smiles_input                            assayed_target  quantity_measured  result
0  Cc1cc(C)c2c(N)c(C(=O)NCCCCCN3CCN(c4cccc(Cl)c4Cl)CC3)sc2n1  D(2) dopamine receptor (Homo sapiens, UniProt P14416)                pKA       9
1  COc1ccccc1N1CCN(CCCCCNC(=O)c2sc3nc(C)cc(C)c3c2N)CC1  D(2) dopamine receptor (Homo sapiens, UniProt P14416)                pKA    8.84
2  COc1ccccc1N1CCN(CCCCCNC(=O)c2sc3nc(OC)c(Cl)c(C)c3c2N)CC1  D(2) dopamine receptor (Homo sapiens, UniProt P14416)                pKA    7.47
3  CC(C)(C)OC(=O)NCCCCCN1CCN(c2cccc(Cl)c2Cl)CC1  D(2) dopamine receptor (Homo sapiens, UniProt P14416)                pKA    7.73
4  COc1nc2sc(C(=O)NCCCCCN3CCN(c4cccc(Cl)c4Cl)CC3)c(N)c2c(C)c1Cl  D(2) dopamine receptor (Homo sapiens, UniProt P14416)                pKA    6.89
5  COc1ccccc1N1CCN(CCCCCNC(=O)OC(C)(C)C)CC1  D(2) dopamine receptor (Homo sapiens, UniProt P14416)                pKA    7.06

====

Listing of entries alongside the reported pKb.
# assayed target: D(2) dopamine receptor (Homo sapiens, UniProt P14416)
# assay protocol: Competitive antagonist activity at human D2L receptor expressed in FlpIn CHO cells assessed as inhibition of dopamine-induced ERK1/2 phosphorylation treated for 30 mins prior to dopamine stimulation for 5 mins by AlphaScreen assay
# Format: cell-based
quantity measured: pKb

>>> df
                               smiles_input                            assayed_target  result
0  COc1ccccc1N1CCN(CCCCNC(=O)c2sc3nc(OC)c(Cl)c(C)c3c2N)CC1  D(2) dopamine receptor (Homo sapiens, UniProt P14416)    6.31
1                        COc1ccccc1N1CCNCC1  D(2) dopamine receptor (Homo sapiens, UniProt P14416)    6.32
2  COc1ccccc1N1CCN(CCCNC(=O)c2sc3nc(OC)c(Cl)c(C)c3c2N)CC1  D(2) dopamine receptor (Homo sapiens, UniProt P14416)    6.13
3  COc1ccccc1N1CCN(CCNC(=O)c2sc3nc(OC)c(Cl)c(C)c3c2N)CC1  D(2) dopamine receptor (Homo sapiens, UniProt P14416)    6.45

====

# assayed target: D(2) dopamine receptor (Homo sapiens, UniProt P14416)
# condition notes: CHO
# Description: Intrinsic activity at human D2L receptor expressed in FlpIn CHO cells assessed as induction of ERK1/2 phosphorylation by AlphaScreen assay
Listing of entries alongside the reported log(activity).
quantity measured: log(activity)

In [3]: df
Out[3]:
                               smiles_input  quantity_measured  result
0  COc1ccccc1N1CCN(CCCCCNC(=O)OC(C)(C)C)CC1      log(activity)   -0.67
1  CC(C)(C)OC(=O)NCCCCCN1CCN(c2cccc(Cl)c2Cl)CC1      log(activity)   -0.51
2  COc1ccccc1N1CCN(CCCCCNC(=O)c2sc3nc(OC)c(Cl)c(C)c3c2N)CC1      log(activity)   -0.65
3  Cc1cc(C)c2c(N)c(C(=O)NCCCCCN3CCN(c4cccc(Cl)c4Cl)CC3)sc2n1      log(activity)   -0.78
4  COc1nc2sc(C(=O)NCCCCCN3CCN(c4cccc(Cl)c4Cl)CC3)c(N)c2c(C)c1Cl      log(activity)   -0.65
5                         NCCc1ccc(O)c(O)c1      log(activity)    0.79

====

# assay protocol: Retention time of the compound by HPLC analysis
# Assay type: physicochemical
quantity measured: Retention_time (min)

>>> df
                                smiles_input  result
 0  Cc1cc(C)c2c(N)c(C(=O)NCCCCCN3CCN(c4cccc(Cl)c4Cl)CC3)sc2n1   10.13
 1  CC(C)(C)OC(=O)NCCCCCCN1CCC(O)(c2ccc(Cl)cc2)CC1    8.77
 2  COc1ccccc1N1CCN(CCCCCNC(=O)c2sc3nc(C)cc(C)c3c2N)CC1    8.89
 3  CC(C)(C)OC(=O)NCCN1CCC(O)(c2ccc(Cl)cc2)CC1    7.68
 4  COc1ccccc1N1CCN(CCCCCNC(=O)OC(C)(C)C)CC1   10.43
 5    COc1ccccc1N1CCN(CCCNC(=O)OC(C)(C)C)CC1    7.74
 6  COc1nc2sc(C(=O)NCCCCCN3CCN(c4cccc(Cl)c4Cl)CC3)c(N)c2c(C)c1Cl   11.66
 7  COc1ccccc1N1CCN(CCCCCNC(=O)c2sc3nc(OC)c(Cl)c(C)c3c2N)CC1    9.84
 8  Cc1cc(C)c2c(N)c(C(=O)NCCN3CCC(O)(c4ccc(Cl)cc4)CC3)sc2n1    8.06
 9  CC(C)(C)OC(=O)NCCCCCN1CCN(c2cccc(Cl)c2Cl)CC1   10.43
10  Cc1cc(C)c2c(N)c(C(=O)NCCCCCCN3CCC(O)(c4ccc(Cl)cc4)CC3)sc2n1    8.39
11  COc1ccccc1N1CCN(CCCCNC(=O)c2sc3nc(OC)c(Cl)c(C)c3c2N)CC1     9.3

====

# assayed target: UniProt P14416
# condition notes: CHO
Listing of entries alongside the reported pKA.
quantity measured: pKA

>>> print(df.to_string())
                               smiles_input  result
0  COc1nc2sc(C(=O)NCCCCCN3CCN(c4cccc(Cl)c4Cl)CC3)c(N)c2c(C)c1Cl     7.1
1  COc1ccccc1N1CCN(CCCCCNC(=O)c2sc3nc(OC)c(Cl)c(C)c3c2N)CC1    8.86
2  Cc1cc(C)c2c(N)c(C(=O)NCCCCCN3CCN(c4cccc(Cl)c4Cl)CC3)sc2n1     7.9
3  COc1ccccc1N1CCN(CCCCCNC(=O)OC(C)(C)C)CC1    8.77
4  CC(C)(C)OC(=O)NCCCCCN1CCN(c2cccc(Cl)c2Cl)CC1    7.14
5                         NCCc1ccc(O)c(O)c1    7.98

====

# assayed target: D(2) dopamine receptor (Homo sapiens)
# assay protocol: Partial agonist activity at human D2L receptor expressed in FlpIn CHO cells assessed as induction of ERK1/2 phosphorylation by AlphaScreen assay
# Format: cell-based
quantity measured: log10(EC50) (log10 of the value in nM)

>>> df
                               smiles_input  quantity_measured  result
0   COc1ccccc1N1CCN(CCCCNC(=O)OC(C)(C)C)CC1        log10(EC50)   -0.22
1  COc1ccccc1N1CCN(CCCCCNC(=O)c2sc3nc(OC)c(Cl)c(C)c3c2N)CC1        log10(EC50)    0.43
2    COc1ccccc1N1CCN(CCCNC(=O)OC(C)(C)C)CC1        log10(EC50)   -0.41
3  COc1ccccc1N1CCN(CCCCCCNC(=O)c2sc3nc(OC)c(Cl)c(C)c3c2N)CC1        log10(EC50)    0.74
4  COc1ccccc1N1CCN(CCCCCNC(=O)OC(C)(C)C)CC1        log10(EC50)    0.16

====

# assayed target: D(2) dopamine receptor (Homo sapiens)
# assay protocol: Agonist activity at human D2L receptor expressed in FlpIn CHO cells assessed as inhibition of forskolin-stimulated cAMP production treated for 30 mins by AlphaScreen assay
# Assay type: functional, cell-based
pEC50: −log10 of the molar value.
quantity measured: pEC50

>>> df
                               smiles_input  result
0  Cc1cc(C)c2c(N)c(C(=O)NCCCCCN3CCN(c4cccc(Cl)c4Cl)CC3)sc2n1    9.52
